target desc: SMARCA2 (Homo sapiens, UniProt P51531)
Construct: SMARCA2-HiBiT knock-in Hela monoclonal cell (CS302366); host or cells: HeLa (CRISPR HiBiT knock-in monoclonal line, heterozygous)
Sequence (P51531 whole entry): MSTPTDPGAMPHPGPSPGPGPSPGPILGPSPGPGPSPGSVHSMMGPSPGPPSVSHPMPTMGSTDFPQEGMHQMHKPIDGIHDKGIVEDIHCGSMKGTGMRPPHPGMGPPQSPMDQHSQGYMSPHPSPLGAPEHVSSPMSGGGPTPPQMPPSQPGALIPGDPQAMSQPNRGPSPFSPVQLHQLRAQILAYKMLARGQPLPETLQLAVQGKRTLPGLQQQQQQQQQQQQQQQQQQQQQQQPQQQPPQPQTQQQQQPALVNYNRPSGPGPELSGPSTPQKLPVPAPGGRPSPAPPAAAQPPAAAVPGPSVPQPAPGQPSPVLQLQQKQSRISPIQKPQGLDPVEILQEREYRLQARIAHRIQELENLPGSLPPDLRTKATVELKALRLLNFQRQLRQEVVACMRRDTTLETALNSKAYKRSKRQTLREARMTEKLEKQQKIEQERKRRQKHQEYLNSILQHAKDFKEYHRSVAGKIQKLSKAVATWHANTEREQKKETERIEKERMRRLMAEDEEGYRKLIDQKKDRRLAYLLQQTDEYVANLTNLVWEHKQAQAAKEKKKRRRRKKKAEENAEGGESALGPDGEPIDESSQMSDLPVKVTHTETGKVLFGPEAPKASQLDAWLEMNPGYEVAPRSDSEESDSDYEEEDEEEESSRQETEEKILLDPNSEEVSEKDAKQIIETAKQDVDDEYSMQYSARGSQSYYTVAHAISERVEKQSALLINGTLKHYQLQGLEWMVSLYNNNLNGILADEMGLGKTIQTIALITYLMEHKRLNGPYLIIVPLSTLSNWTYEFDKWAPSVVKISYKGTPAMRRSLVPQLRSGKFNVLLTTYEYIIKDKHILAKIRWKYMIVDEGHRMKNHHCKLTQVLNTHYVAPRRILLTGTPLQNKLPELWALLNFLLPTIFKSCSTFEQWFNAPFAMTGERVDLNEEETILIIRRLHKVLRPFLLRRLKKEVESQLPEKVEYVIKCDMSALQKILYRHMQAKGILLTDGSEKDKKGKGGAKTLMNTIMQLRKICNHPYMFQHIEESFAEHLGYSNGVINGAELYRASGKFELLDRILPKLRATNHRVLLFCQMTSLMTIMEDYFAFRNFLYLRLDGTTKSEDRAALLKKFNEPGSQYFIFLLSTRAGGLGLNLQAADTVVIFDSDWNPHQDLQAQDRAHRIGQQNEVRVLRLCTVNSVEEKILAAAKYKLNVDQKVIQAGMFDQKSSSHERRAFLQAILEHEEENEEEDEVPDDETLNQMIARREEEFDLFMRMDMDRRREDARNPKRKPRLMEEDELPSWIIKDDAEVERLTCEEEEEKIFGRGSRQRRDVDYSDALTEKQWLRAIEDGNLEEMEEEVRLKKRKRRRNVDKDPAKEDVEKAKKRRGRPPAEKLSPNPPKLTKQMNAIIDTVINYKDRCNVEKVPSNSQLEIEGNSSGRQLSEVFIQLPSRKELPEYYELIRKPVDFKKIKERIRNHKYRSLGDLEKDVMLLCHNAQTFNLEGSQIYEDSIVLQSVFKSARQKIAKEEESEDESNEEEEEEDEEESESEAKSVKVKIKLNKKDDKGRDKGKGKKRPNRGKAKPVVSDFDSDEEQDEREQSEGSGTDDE
experiment: SMARCA2 HiBiT degradation assay in HeLa cells
Format: cell-based
run conditions: 18 hours

molecule	SMARCA2 DMax %
CCC12CNc3nnc(-c4cc(F)cc(F)c4O)cc3N1CCN(C(=O)C1(F)CCC(CN3CCN(c4ccc5c(c4)C(=O)N([C@H]4CCC(=O)NC4=O)C5)CC3)CC1)C2 (single isomer, unassigned) [Example 103]	A (A=Dmax>75%)
CCC12CNc3nnc(-c4cccc(F)c4O)cc3N1CCN(C(=O)N1[C@H](C)CN(CC3CCN(c4ccc5c(c4)C(=O)N(C4CCC(=O)NC4=O)C5)CC3)C[C@@H]1C)C2 (single isomer, unassigned) [Example 86]	A (A=Dmax>75%)
CCC12CNc3nnc(-c4cccc(F)c4O)cc3N1CCN(C(=O)C1(F)CCN(CC3CCN(c4ccc5c(c4)C(=O)N([C@H]4CCC(=O)NC4=O)C5)CC3)CC1)C2 (single isomer, unassigned) [Example 108]	A (A=Dmax>75%)

Reference source for all entries: patent US20230365576A1
